Target: rat GluN1/GluN2C (Rattus norvegicus, UniProt P35439+Q00961)
Construct: expressed in transfected cells; host or cells: Xenopus laevis oocytes (cRNA injection, GluN1/GluN2 ratio 1:2)
Sequence (Q00961 20-1237, other chains not shown): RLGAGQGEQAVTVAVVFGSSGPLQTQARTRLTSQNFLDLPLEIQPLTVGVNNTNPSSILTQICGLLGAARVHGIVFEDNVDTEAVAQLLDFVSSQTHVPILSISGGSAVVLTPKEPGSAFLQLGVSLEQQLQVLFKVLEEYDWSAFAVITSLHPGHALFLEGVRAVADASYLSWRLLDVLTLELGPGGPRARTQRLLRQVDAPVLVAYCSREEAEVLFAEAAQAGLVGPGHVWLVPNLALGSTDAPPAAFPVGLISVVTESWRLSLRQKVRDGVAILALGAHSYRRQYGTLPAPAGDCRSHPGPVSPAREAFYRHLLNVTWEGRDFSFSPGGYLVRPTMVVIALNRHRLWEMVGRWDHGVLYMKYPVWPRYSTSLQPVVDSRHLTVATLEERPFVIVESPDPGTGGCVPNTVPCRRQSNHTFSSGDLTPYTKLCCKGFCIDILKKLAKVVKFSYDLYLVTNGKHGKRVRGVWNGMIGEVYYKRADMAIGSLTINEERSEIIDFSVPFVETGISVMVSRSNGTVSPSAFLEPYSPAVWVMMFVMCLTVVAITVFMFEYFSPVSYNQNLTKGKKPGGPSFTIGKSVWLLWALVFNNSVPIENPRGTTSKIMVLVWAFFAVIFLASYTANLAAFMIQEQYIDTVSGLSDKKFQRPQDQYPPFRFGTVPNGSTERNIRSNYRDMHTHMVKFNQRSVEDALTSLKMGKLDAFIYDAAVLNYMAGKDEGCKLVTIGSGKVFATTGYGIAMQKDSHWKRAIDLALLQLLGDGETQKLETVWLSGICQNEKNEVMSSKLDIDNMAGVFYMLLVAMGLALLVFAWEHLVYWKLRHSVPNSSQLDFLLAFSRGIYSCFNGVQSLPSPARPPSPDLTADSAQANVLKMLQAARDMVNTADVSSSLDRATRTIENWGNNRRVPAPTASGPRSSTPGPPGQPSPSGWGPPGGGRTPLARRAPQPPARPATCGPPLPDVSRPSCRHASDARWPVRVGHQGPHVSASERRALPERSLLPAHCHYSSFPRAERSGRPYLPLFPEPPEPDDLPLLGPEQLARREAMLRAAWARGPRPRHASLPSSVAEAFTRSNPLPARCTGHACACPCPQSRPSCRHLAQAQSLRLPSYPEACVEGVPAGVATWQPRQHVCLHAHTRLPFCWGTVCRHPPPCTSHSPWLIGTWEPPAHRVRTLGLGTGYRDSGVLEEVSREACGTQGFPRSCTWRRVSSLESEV
Assay: Two-electrode voltage-clamp recording in Xenopus laevis oocytes expressing recombinant rat GluN1/GluN2C
Assay type: cell-based
Details: 30 μM test compound; current ratio, oocytes; read-out: I30 μM/Icontrol (mean ± SEM, %) GluN2C
Quick list: remaining activity at 30 µM per entry.
MEASURED_ENDPOINT: remaining activity at 30 µM (%)

MOLECULE	SYSTEM_UNDER_TEST	UNITS_LABEL	READOUT_VALUE
O=C(O)CC(F)(F)C(=O)N1N=C(c2c(-c3ccc(Cl)cc3)c3cccnc3[nH]c2=O)CC1c1ccc(Cl)cc1 (stereo not drawn) [Compound 88]	rat GluN1/GluN2C (Rattus norvegicus, UniProt P35439+Q00961)	%	6.6
O=C(O)CC(F)(F)C(=O)N1N=C(c2cnccc2-c2ccc(Cl)cc2)CC1c1ccc(Cl)cc1 (stereo not drawn) [Compound 29]	rat GluN1/GluN2C (Rattus norvegicus, UniProt P35439+Q00961)	%	35
Cc1cc(-c2ccc(Cl)cc2)c(C2=NN(C(=O)C(F)(F)CC(=O)O)C(c3ccc(Cl)cc3)C2)cn1 (stereo not drawn) [Compound 73]	rat GluN1/GluN2C (Rattus norvegicus, UniProt P35439+Q00961)	%	111

Cited source: patent US20240217979A1
